- Tested on: Rhizoctonia solani
- ASSAY_NOTES: Test 10 - Control of Rhizoctonia solani, corn seed treatment, plant height
- Assay type: in vivo
- RUN_PARAMETERS: single active compound, 63 g a.i./100 kg seeds, 14 days
PROPERTY_LABEL: Observed efficacy (%)

| MOLECULE | UNITS | READOUT_VALUE |
| --- | --- | --- |
| COC(=O)N(OC)c1ccccc1COc1ccn(-c2ccc(Cl)cc2)n1 [Pyraclostrobin, reference compound] | % | 49 |
| COCC(=O)N(c1c(C)cccc1C)[C@H](C)C(=O)OC [Mefenoxam, reference compound] | % | 0 |
| CCN(C(=O)c1cnn(C(C)C(C)C)c1C)c1ccnnc1 (stereo not shown) | % | 5 |
| CCN(C(=O)c1cnn(C(C)C(F)F)c1C)c1ccnnc1 (stereo not shown) | % | 0 |
